Target: AXL (Homo sapiens, UniProt P30530)
Sequence (P30530 26-894): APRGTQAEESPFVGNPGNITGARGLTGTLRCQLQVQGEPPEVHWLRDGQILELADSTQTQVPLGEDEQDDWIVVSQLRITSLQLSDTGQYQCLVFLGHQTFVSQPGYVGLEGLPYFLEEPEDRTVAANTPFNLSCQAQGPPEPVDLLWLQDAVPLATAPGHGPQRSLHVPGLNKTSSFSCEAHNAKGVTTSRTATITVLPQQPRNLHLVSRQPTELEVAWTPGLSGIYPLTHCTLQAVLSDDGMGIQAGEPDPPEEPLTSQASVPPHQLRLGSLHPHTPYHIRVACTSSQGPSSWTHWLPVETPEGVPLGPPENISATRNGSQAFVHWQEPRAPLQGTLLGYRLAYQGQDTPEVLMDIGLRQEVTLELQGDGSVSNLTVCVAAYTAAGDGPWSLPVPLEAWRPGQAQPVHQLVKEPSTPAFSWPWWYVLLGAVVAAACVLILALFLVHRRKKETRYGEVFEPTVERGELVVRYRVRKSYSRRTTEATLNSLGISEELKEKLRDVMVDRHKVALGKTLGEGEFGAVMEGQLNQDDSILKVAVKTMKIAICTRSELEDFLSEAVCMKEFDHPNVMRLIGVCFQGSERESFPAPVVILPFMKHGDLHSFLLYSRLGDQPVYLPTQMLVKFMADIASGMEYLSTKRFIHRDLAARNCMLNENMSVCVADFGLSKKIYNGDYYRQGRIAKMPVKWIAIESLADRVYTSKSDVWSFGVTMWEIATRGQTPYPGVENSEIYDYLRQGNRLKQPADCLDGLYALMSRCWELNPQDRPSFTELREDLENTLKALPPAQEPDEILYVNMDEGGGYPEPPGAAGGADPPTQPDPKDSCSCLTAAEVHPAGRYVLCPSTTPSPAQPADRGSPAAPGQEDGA
pIC50: −log10 of the molar value.
Below, each entry is listed with its recorded pIC50.

In the examples that follow, each entry is paired with its recorded pIC50.
{"COMPOUND": "COc1cc2c(Oc3ccc(NC(=O)C4(C(=O)Nc5ccc(F)cc5)CC4)cc3)ccnc2cc1OC(=O)N1[C@H](C)CN(C)C[C@@H]1C [Compound 6-3]", "pIC50": "> 7.00"}
{"COMPOUND": "COc1cc2c(Oc3ccc(NC(=O)C4(C(=O)Nc5ccc(F)cc5)CC4)cc3)ccnc2cc1OC(=O)N1CC[C@H](O)C1 [Compound 2-5]", "pIC50": "> 7.00"}
{"COMPOUND": "COc1cc2c(Oc3ccc(NC(=O)C4(C(=O)Nc5ccc(F)cc5)CC4)cc3)ncnc2cc1OC(=O)N1CCN(C)C[C@H]1C [Compound 8-6]", "pIC50": "6.00 to 7.00"}
{"COMPOUND": "COc1cc2c(Oc3ccc(NC(=O)C4(C(=O)Nc5ccc(F)cc5)CC4)cc3)ccnc2cc1OC(=O)N1C[C@H]2C[C@@H]1CN2C [Compound 2-6]", "pIC50": "> 7.00"}

Entry COc1cc2nccc(Oc3ccc(NC(=O)C4(C(=O)Nc5ccc(F)cc5)CC4)cc3)c2cc1OC(=O)N1CCN(C)CC1(C)C [Compound 7-7] : reported pIC50 = ? > 7.00

Also COc1cc2c(Oc3ccc(NC(=O)C4(C(=O)Nc5ccc(F)cc5)CC4)cc3)ccnc2cc1OC(=O)N1CCN(C)C[C@H]1C [Compound 1-11] ? > 7.00

###

Below, each entry is listed with its recorded IC50.
Target: c-MER (Homo sapiens)
Sequence (Q12866 21-999): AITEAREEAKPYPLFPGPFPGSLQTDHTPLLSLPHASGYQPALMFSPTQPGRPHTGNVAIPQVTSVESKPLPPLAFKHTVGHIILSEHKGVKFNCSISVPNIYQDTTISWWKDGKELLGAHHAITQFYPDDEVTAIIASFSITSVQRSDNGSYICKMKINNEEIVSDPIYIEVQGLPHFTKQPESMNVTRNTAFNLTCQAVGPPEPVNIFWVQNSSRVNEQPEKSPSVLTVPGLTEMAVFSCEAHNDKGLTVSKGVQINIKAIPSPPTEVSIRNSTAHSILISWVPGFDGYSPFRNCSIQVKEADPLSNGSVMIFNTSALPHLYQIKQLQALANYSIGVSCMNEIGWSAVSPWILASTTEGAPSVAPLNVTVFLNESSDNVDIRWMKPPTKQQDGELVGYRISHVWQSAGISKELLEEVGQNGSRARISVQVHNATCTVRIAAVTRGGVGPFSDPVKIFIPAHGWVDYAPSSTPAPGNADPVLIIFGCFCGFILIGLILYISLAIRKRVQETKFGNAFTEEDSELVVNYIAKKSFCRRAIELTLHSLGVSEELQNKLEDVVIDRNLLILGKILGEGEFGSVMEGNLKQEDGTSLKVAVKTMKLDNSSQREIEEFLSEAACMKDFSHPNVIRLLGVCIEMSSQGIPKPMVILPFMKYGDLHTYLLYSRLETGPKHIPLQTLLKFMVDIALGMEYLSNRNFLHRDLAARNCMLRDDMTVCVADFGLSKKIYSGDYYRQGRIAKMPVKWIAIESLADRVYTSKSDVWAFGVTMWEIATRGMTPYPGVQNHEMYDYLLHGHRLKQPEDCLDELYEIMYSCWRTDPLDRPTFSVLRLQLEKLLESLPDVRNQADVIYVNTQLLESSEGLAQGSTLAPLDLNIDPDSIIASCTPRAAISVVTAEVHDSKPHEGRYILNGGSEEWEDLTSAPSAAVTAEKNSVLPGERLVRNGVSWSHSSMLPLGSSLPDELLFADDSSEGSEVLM

In the examples that follow, each entry is paired with its recorded IC50.
{"SMILES_STR": "COc1cc2c(Oc3ccc(NC(=O)C4(C(=O)Nc5ccc(F)cc5)CC4)cc3)ccnc2cc1OC(=O)N1[C@H](C)CN(C)C[C@@H]1C", "PARAMETER": "IC50", "READING": "< 100 nM"}
{"SMILES_STR": "COc1cc2c(Oc3ccc(NC(=O)C4(C(=O)Nc5ccc(F)cc5)CC4)cc3)ccnc2cc1OC(=O)N(C)C", "PARAMETER": "IC50", "READING": "100 to 1000 nM"}

Entry `COc1cc2c(Oc3ccc(NC(=O)C4(C(=O)Nc5ccc(F)cc5)CC4)cc3F)ncnc2cc1OC(=O)N1CCN(C)C[C@H]1C` : reported IC50 = ? < 100 nM

###

molecular target: KHS/MAP4K5 (Homo sapiens, UniProt Q9Y4K4); experiment: HotSpot Kinase Assay, KHS/MAP4K5
Sequence (Q9Y4K4 whole entry): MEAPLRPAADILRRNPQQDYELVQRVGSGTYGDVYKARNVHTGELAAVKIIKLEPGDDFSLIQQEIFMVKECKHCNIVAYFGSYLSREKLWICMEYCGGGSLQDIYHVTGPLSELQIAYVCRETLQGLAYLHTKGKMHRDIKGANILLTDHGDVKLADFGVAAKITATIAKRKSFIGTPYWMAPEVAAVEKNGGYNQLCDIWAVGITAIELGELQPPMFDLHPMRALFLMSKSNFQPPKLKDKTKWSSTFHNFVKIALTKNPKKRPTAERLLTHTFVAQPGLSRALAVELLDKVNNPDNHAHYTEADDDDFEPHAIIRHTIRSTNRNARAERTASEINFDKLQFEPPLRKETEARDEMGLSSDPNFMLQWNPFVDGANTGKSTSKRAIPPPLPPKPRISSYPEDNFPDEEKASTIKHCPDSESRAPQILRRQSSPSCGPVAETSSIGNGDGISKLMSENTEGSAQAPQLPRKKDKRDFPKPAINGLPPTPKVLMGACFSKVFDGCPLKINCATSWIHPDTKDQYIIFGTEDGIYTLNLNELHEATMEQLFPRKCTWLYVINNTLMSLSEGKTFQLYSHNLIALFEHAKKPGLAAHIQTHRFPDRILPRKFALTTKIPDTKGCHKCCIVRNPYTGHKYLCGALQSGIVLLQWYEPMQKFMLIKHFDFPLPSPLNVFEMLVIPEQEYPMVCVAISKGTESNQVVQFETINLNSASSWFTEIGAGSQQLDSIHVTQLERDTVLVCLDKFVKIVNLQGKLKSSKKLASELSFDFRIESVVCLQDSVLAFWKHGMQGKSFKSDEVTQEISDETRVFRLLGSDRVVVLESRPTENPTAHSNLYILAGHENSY
pIC50: −log10 of the molar value.
PARAMETER: pIC50

Entry `COc1cc2c(Oc3ccc(NC(=O)C4(C(=O)Nc5ccc(F)cc5)CC4)cc3)ccnc2cc1OC(=O)N1CCN(C)CC1` : reported pIC50 = ? < 6.00

###

Please consider the recorded IC50 for AXL (Homo sapiens, UniProt P30530) in what follows.

{"SMILES_STR": "COc1cc2c(Oc3ccc(NC(=O)C4(C(=O)Nc5ccc(F)cc5)CC4)cc3F)ncnc2cc1OC(=O)N1CCN(C)C[C@H]1C", "IC50": "< 100 nM"}
{"SMILES_STR": "COc1cc2nccc(Oc3ccc(NC(=O)C4(C(=O)Nc5ccc(F)cc5)CC4)cc3)c2cc1OC(=O)N1CCN(C)CC1", "IC50": "< 100 nM"}

Next:
Entry `COc1cc2nccc(Oc3ccc(NC(=O)C4(C(=O)Nc5ccc(F)cc5)CC4)cc3)c2cc1OC(=O)N1[C@H](C)CNC[C@@H]1C` : reported IC50 = ? < 100 nM

###

biological target: KDR/VEGFR2 (Homo sapiens, UniProt P35968); experiment: HotSpot Kinase Assay, KDR/VEGFR2
Sequence (P35968 20-1356): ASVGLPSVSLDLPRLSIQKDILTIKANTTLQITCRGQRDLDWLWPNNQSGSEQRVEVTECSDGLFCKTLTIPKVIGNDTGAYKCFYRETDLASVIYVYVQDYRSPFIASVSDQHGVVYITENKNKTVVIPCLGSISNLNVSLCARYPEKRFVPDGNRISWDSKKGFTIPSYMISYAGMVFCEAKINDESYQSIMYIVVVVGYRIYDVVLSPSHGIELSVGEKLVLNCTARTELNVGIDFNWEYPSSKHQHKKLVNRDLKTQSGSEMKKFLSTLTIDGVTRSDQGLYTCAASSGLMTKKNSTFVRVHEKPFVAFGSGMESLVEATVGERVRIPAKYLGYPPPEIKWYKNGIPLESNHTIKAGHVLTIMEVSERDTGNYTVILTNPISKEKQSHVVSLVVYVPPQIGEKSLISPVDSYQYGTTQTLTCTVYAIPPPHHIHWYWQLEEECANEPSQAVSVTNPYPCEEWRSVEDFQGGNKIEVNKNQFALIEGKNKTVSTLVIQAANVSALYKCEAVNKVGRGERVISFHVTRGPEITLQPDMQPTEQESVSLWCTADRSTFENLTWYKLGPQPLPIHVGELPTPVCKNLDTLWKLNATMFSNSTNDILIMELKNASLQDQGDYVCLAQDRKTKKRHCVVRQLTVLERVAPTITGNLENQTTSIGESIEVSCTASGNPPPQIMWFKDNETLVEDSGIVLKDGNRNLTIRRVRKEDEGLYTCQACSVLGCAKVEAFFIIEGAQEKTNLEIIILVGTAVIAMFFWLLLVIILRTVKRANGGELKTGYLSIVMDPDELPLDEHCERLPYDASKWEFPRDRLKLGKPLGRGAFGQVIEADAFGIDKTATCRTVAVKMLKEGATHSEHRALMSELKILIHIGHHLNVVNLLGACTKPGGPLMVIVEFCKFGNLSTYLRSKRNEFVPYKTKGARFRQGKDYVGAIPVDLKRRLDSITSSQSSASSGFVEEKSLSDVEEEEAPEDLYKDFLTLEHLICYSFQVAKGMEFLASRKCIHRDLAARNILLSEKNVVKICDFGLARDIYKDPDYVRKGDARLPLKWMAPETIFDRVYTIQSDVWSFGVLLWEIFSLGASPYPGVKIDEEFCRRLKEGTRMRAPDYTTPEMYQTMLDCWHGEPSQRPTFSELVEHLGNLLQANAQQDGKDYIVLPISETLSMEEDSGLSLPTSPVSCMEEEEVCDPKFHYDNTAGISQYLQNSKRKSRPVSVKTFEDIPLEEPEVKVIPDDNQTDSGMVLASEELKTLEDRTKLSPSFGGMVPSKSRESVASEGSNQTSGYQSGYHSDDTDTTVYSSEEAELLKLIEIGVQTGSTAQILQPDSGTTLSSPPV
Below, each entry is listed with its recorded IC50.

{"COMPOUND": "COc1cc2nccc(Oc3ccc(NC(=O)C4(C(=O)Nc5ccc(F)cc5)CC4)cc3)c2cc1OC(=O)N1CCN(C)C[C@H]1C [Compound 7-3]", "TARGET": "KDR/VEGFR2 (Homo sapiens, UniProt P35968)", "PARAMETER": "IC50", "READING": "< 100 nM"}
{"COMPOUND": "COc1cc2c(Oc3ccc(NC(=O)C4(C(=O)Nc5ccc(F)cc5)CC4)cc3)ccnc2cc1OC(=O)N1CCN(C)CC1(C)C [Compound 6-6]", "TARGET": "KDR/VEGFR2 (Homo sapiens, UniProt P35968)", "PARAMETER": "IC50", "READING": "100 to 1000 nM"}

Entry COc1cc2c(Oc3ccc(NC(=O)C4(C(=O)Nc5ccc(F)cc5)CC4)cc3F)ncnc2cc1OC(=O)N1CCN(C)C[C@H]1C [Compound 9-6] : reported IC50 = ? 100 to 1000 nM

###

Target: PLK4/SAK (Homo sapiens, UniProt O00444)
Sequence (O00444 1-970): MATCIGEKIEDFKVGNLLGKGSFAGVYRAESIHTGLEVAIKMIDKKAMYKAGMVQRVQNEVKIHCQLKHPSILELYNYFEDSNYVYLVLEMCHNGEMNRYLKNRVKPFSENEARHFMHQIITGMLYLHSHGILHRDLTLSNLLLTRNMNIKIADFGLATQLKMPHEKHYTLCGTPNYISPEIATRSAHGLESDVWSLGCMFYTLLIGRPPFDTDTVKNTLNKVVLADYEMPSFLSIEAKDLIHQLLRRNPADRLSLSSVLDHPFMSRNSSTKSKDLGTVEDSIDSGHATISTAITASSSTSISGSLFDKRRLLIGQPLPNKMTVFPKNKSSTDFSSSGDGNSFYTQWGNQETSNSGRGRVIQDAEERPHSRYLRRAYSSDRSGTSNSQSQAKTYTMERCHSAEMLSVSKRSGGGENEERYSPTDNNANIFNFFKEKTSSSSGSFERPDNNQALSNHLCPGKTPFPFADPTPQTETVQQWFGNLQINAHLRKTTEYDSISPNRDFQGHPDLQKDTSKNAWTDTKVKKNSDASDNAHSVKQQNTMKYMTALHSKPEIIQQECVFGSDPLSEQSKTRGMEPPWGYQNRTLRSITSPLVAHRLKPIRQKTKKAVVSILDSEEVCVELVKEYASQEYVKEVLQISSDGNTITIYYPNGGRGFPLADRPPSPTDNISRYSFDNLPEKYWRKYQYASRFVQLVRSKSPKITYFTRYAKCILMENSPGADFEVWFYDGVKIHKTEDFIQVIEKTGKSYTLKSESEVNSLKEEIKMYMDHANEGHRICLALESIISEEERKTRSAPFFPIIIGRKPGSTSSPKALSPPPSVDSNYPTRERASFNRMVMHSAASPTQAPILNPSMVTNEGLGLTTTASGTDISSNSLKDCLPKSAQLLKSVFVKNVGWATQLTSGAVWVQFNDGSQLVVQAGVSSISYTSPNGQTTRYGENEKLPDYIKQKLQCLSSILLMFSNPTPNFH
Test: HotSpot Kinase Assay, PLK4/SAK
pIC50: −log10 of the molar value.
PARAMETER: pIC50

Entry `COc1cc2c(Oc3ccc(NC(=O)C4(C(=O)Nc5ccc(F)cc5)CC4)cc3)ccnc2cc1OC(=O)N1CCN(C)CC1` : reported pIC50 = ? < 6.00
